system: H3255; experiment: relative viability (nuclei count vs DMSO), 5 days (fraction); higher = more cells survive; conditions: first compound 0.002 µM
measured-endpoint: relative viability
Give bare numbers.

CC(=O)O[C@@]12CO[C@@H]1C[C@H](O)[C@@]1(C)C(=O)[C@H](O)C3=C(C)[C@@H](OC(=O)[C@H](O)[C@@H](NC(=O)OC(C)(C)C)c4ccccc4)C[C@@](O)([C@@H](OC(=O)c4ccccc4)[C@H]21)C3(C)C [Docetaxel] + Nc1nc2[nH]cc(CCc3ccc(C(=O)N[C@@H](CCC(=O)O)C(=O)O)cc3)c2c(=O)[nH]1 [Pemetrexed] (partner 0.2 µM); 0.437
CC(=O)O[C@@]12CO[C@@H]1C[C@H](O)[C@@]1(C)C(=O)[C@H](O)C3=C(C)[C@@H](OC(=O)[C@H](O)[C@@H](NC(=O)OC(C)(C)C)c4ccccc4)C[C@@](O)([C@@H](OC(=O)c4ccccc4)[C@H]21)C3(C)C [Docetaxel] + N=C(N)NC(=N)NCCc1ccccc1 [Phenformin] (partner 250 µM); 0.312

**Q:** Find the recorded relative viability belonging to CC(=O)O[C@@]12CO[C@@H]1C[C@H](O)[C@@]1(C)C(=O)[C@H](O)C3=C(C)[C@@H](OC(=O)[C@H](O)[C@@H](NC(=O)OC(C)(C)C)c4ccccc4)C[C@@](O)([C@@H](OC(=O)c4ccccc4)[C@H]21)C3(C)C [Docetaxel] + CCNC(=O)c1noc(-c2cc(C(C)C)c(O)cc2O)c1-c1ccc(CN2CCOCC2)cc1 [Luminespib] (partner 0.01 µM) and report it.
**A:** 0.755

---

test system: NCI-H596; assay: relative viability (nuclei count vs DMSO), 5 days (fraction); higher = more cells survive; settings: first compound 0.5 µM
Response field label takes 1 when relative viability is strictly below 0.4 and -1 in all other cases.

COc1cc2nccc(Oc3ccc(NC(=O)Nc4cc(C)on4)c(Cl)c3)c2cc1OC [Tivozanib] + Nc1ncn([C@H]2C[C@H](O)[C@@H](CO)O2)c(=O)n1 [Decitabine] (partner 2 µM); -1
Nc1ccn([C@@H]2O[C@H](CO)[C@@H](O)[C@@H]2O)c(=O)n1 [Cytarabine] + CC(C)C[C@H](NC(=O)[C@H](Cc1ccccc1)NC(=O)c1cnccn1)B(O)O [Bortezomib] (partner 0.002 µM); -1
COc1cc2nccc(Oc3ccc(NC(=O)Nc4cc(C)on4)c(Cl)c3)c2cc1OC [Tivozanib] + COc1cc2c(Oc3ccc(NC(=O)C4(C(=O)Nc5ccc(F)cc5)CC4)cc3F)ccnc2cc1OCCCN1CCOCC1 [Foretinib] (partner 0.25 µM); -1
COc1cc2nccc(Oc3ccc(NC(=O)Nc4cc(C)on4)c(Cl)c3)c2cc1OC [Tivozanib] + Cc1cc(Nc2cc(N3CCN(C)CC3)nc(Sc3ccc(NC(=O)C4CC4)cc3)n2)n[nH]1 [Tozasertib] (partner 0.1 µM); -1
Nc1ccn([C@@H]2O[C@H](CO)[C@@H](O)[C@@H]2O)c(=O)n1 [Cytarabine] + N=C(N)NC(=N)NCCc1ccccc1 [Phenformin] (partner 250 µM); -1

**Q:** Here's an entry: Nc1ccn([C@@H]2O[C@H](CO)[C@@H](O)[C@@H]2O)c(=O)n1 [Cytarabine] + CC(=O)Nc1cccc(-n2c(=O)n(C3CC3)c(=O)c3c(Nc4ccc(I)cc4F)n(C)c(=O)c(C)c32)c1 [Trametinib] (partner 0.02 µM) . Is its relative viability below 0.4?
**A:** -1

**Q:** Here's an entry: Nc1ccn([C@@H]2O[C@H](CO)[C@@H](O)[C@@H]2O)c(=O)n1 [Cytarabine] + CS(=O)(=O)N1CCN(Cc2cc3nc(-c4cccc5[nH]ncc45)nc(N4CCOCC4)c3s2)CC1 [Pictilisib] (partner 1 µM) . Is its relative viability below 0.4?
**A:** 1

**Q:** Here's an entry: Nc1ccn([C@@H]2O[C@H](CO)[C@@H](O)[C@@H]2O)c(=O)n1 [Cytarabine] + COc1cccc2cc(-c3nc([C@H]4CC[C@H](C(=O)O)CC4)n4ncnc(N)c34)[nH]c12 [OSI-027] (partner 0.5 µM) . Is its relative viability below 0.4?
**A:** 1

**Q:** Here's an entry: Nc1ccn([C@@H]2O[C@H](CO)[C@@H](O)[C@@H]2O)c(=O)n1 [Cytarabine] + CC1(C)CCC(c2ccc(Cl)cc2)=C(CN2CCN(c3ccc(C(=O)NS(=O)(=O)c4ccc(N[C@H](CCN5CCOCC5)CSc5ccccc5)c(S(=O)(=O)C(F)(F)F)c4)cc3)CC2)C1 [Navitoclax] (partner 0.5 µM) . Is its relative viability below 0.4?
**A:** -1

**Q:** Here's an entry: Nc1ccn([C@@H]2O[C@H](CO)[C@@H](O)[C@@H]2O)c(=O)n1 [Cytarabine] + NC(=O)Nc1cc(-c2cccc(F)c2)sc1C(=O)N[C@H]1CCCNC1 [AZD7762] (partner 0.2 µM) . Is its relative viability below 0.4?
**A:** 1
